- system under test: human recombinant sGC enzyme (Homo sapiens (Human), UniProt Q02108+Q02153)
- protocol details: Size Exclusion Chromatography (SEC) competition binding assay using [3H] Ex-77B as the radioligand
- experimental parameters: [3H] Ex-77B radioligand, 24 hours at 37° C.
Ki listing for selected compounds.
Numbers only here, please. The scale is nM.

// solved cases for Ki follow
{"columns": ["compound", "value kind", "units label", "quantitative readout"],
 "data": [
  ["CC(C)(Cc1csc([C@]2(C)C(=O)Nc3nc(-c4nn(CC5CCCCO5)c5cc(F)ccc45)nc(N)c32)n1)C(=O)O (single isomer, unassigned) [Example 133AA]", "Ki", "nM", 0.513],
  ["CC(C)(Cc1csc([C@]2(C)C(=O)Nc3nc(-c4nn(CCC(F)(F)C(F)(F)F)c5ncccc45)nc(N)c32)n1)C(=O)O (single isomer, unassigned) [Example 77B]", "Ki", "nM", 0.232],
  ["CC(C)(Cc1cccc(C2(C)C(=O)Nc3nc(-c4nn(CCC(F)(F)C(F)(F)F)c5ncccc45)nc(N)c32)c1)C(=O)O (stereo not drawn) [Example 11B]", "Ki", "nM", 0.304],
  ["C[C@@]1(c2ccc(CCC(=O)O)cc2)C(=O)Nc2nc(-c3nn(Cc4ncccc4F)c4cc(Cl)ccc34)nc(N)c21 (single isomer, unassigned) [Example 57B]", "Ki", "nM", 0.096],
  ["CC(C)(Cc1csc([C@]2(C)C(=O)Nc3nc(-c4nn(CC5CCCCO5)c5cc(F)ccc45)nc(N)c32)n1)C(=O)O (single isomer, unassigned) [Example 133AB]", "Ki", "nM", 0.359]
]}

Note: attention shifts to another entry.
Req: Answer with reported Ki of Cc1ccc(Cn2nc(-c3nc(N)c4c(n3)NC(=O)[C@@]4(C)c3ccc(CCC(=O)O)cc3)c3ccc(Cl)cc32)cc1 [Example 67B]
Resp: 0.154
